Measured values drawn from PubChem BioAssay (NCI) for this set.

tested on: MDA-MB-468 breast; test: NCI tumour cell line growth inhibition, 48 h
Recorded metric: log10 TGI (log10 of the value in µM)
In our notation, the value equals log10 of TGI in µM.

The examples below pair each entry with its known result.
O=C1Nc2ccc(C(=O)c3ccco3)cc2/C1=C/c1cc(Cl)c(O)c(Cl)c1 ... 1.20
COc1cc(Nc2nccc(Nc3ccc4c(C)[nH]nc4c3)n2)cc(OC)c1OC ... 0.90
C#C[C@]1(O)CC[C@H]2[C@@H]3CC=C4c5sc(Nc6cccc(Cl)n6)nc5CC[C@]4(C)[C@H]3CC[C@@]21C ... 0.61
CO[C@@H]1/C=C\C=C(/C)C(=O)NC2=CC(=O)C(NCCN(C)C)=C(C[C@@H](C)C[C@@H](OC)[C@@H](O)[C@H](C)/C=C(\C)[C@H]1OC(N)=O)C2=O ... -1.18
O=c1c2cc(Cl)ccc2oc2ccc(OCCCCCN3CCCCC3)cc12 ... 1.10
Cc1ccccc1NC(=O)N/C(N)=N/c1nc(-c2cccc([N+](=O)[O-])c2)cs1 ... 0.86
COc1ccc(CN(C)c2ccc(CO)c(Cl)c2)cc1 ... -0.71
CC(=O)c1c(C)[nH]c(-c2nc3ccc(N4CCN(C)CC4)cc3[nH]2)c1-c1ccc(OCC2CCOCC2)cc1 ... 0.90

Asked: Given the molecule `Cc1nc2sc(C(=O)Nc3cccc(Cl)c3C)c(N)c2cc1C(=O)/C=C/c1ccccc1` , what is its reported log10 TGI?
Given back: -0.09
